These data points were gathered from PubChem BioAssay (NCI).

Below, each entry is listed with its recorded GI50.
Tested on: OVCAR-3 ovarian
Assay Comment: NCI tumour cell line growth inhibition, 48 h

Illustrative cases are given below, each with its answer.
Compound | Result
S=C(N/N=C/c1cc(Cl)cc(Cl)c1)NC12CC3CC(CC(C3)C1)C2 | 6.03 µM
COc1cc2cc(Oc3ccc(NC(=O)c4cccc(C(F)(F)F)c4)cc3)c(C)nc2cc1OC | 3.96 µM
Cc1ccc(C(=O)/C(=C/c2ccc([N+](=O)[O-])cc2)S(=O)Cc2ccccc2)cc1 (stereo not drawn) | 1.28 µM
Cc1cc(N(CCNc2ccnc3cc(Cl)ccc23)Cc2ccc3c(c2)OCO3)nc(N2CCN(C)CC2)n1 | 2.73 µM
C/C(=N\O)c1ccc(Nc2cc(-n3nnc4ccccc43)nc3ccccc23)cc1 | 16.3 µM
COc1ccc(OC)c(-c2cc(-c3ccccc3)nn2-c2ccc(S(=O)(=O)NC(C)=O)cc2)c1 | 2.82 µM
Clc1ccc([O][In]([O]c2ccc(Cl)cn2)[O]c2ccc(Cl)cn2)nc1 | > 100 µM

Query :: I would be grateful if you could share the reported GI50 for CC(C)N(C(C)C)[PH+]1O[PH+](N(C(C)C)C(C)C)O[PH+](N(C(C)C)C(C)C)O[PH+](N(C(C)C)C(C)C)O[PH+](N(C(C)C)C(C)C)O1.[C-]#[O+].[C-]#[O+].[C-]#[O+].[C-]#[O+].[C-]#[O+].[C-]#[O+].[C-]#[O+].[Cr].[Cr] (stereo not drawn) .
Result :: > 100 µM

---

Below, each entry is listed with its recorded TGI.
Test system: DU-145 prostate
Assay Comment: NCI tumour cell line growth inhibition, 48 h
Express the result in µM but write the number alone.

Illustrative cases are given below, each with its answer.
Compound | Value Type | Unit Abbrev | Readout Number
CN(C)CCCNc1cc(O)c2c(c1O)C(=O)c1ccccc1C2=O | TGI | µM | 28
COc1cc(/C=C2\CN(C)CC3=C2Nc2nc(SC)[nH]c(=O)c2C3c2cc(OC)c(OC)c(OC)c2)cc(OC)c1OC (stereo unspecified) | TGI | µM | 12.1
COc1ccc2nc(-c3ccccc3)cc(Nc3cccc(/C(C)=N\O)c3)c2c1 | TGI | µM | 31.9
NCCN(CCN(C(=O)Nc1ccccc1)c1ccccc1)C(=O)Nc1ccccc1 | TGI | µM | 40.1
Cc1ccc(C(=O)/C(=C/c2ccc([N+](=O)[O-])cc2)S(=O)Cc2ccccc2)cc1 (stereo unspecified) | TGI | µM | 2.69
COC(=O)c1ccc2c(c1)C(NC(C)=O)CCc1cc(OC)c(OC)c(OC)c1-2 (stereo unspecified) | TGI | µM | 0.0865
N#CC(C#N)SCc1ccccc1 | TGI | µM | 55.3
CC(O)CNC1=CC(=O)C(=O)c2ccccc21 (stereo unspecified) | TGI | µM | 29.1
O=CN1CCN(C(=O)c2ccco2)C1=S | TGI | µM | 11.6
C#C[C@]1(O)CC[C@H]2[C@@H]3CC=C4c5nc(Nc6ccccn6)sc5CC[C@]4(C)[C@H]3CC[C@@]21C | TGI | µM | 9.16

Query :: I would be grateful if you could share the reported TGI for C=C1C(=O)O[C@@H]2C[C@@]3(C)CC(=O)C=C(C)[C@@H]3C[C@H]12 .
Result :: 16.1

Query :: Do the same for CCc1nc(N)nc(N)c1-c1ccc([N+](=O)[O-])c(NCc2ccccc2)c1 please
Result :: 31.5

Query :: Do the same for Nc1cc(N)c2nc(-c3ccccc3)c(Oc3ccc(F)cc3)nc2c1 please
Result :: 36.8

Query :: Do the same for CN(C)c1ccc(/C=c2/c3ccccc3n3c2cc(-c2ccccc2)[n+]3C)cc1 please
Result :: 1.92

Query :: Do the same for COc1ccc(OC)c(-c2cc(-c3ccccc3)nn2-c2ccc(S(=O)(=O)NC(C)=O)cc2)c1 please
Result :: 36.9

Query :: Do the same for Cc1ccc(C(=O)Nc2ccc(CN3CCN(C)CC3)c(C(F)(F)F)c2)cc1C#Cc1cnc(N)c2ccc(F)cc12 please
Result :: 0.554

Query :: Do the same for CCN(CCCCCCCCCCN1CC(=O)N(CCCCCCCCCCN(CC)Cc2ccccc2OC)CC1=O)Cc1ccccc1OC please
Result :: 2.78

---

Below, each entry is listed with its recorded TGI.
Tested on: MDA-MB-435
Assay Comment: NCI tumour cell line growth inhibition, 48 h
Express the result in µM but write the number alone.

Illustrative cases are given below, each with its answer.
Compound | TGI / µM
Cc1ccc(C(=O)/C(=C/c2ccc([N+](=O)[O-])cc2)S(=O)Cc2ccccc2)cc1 (stereo not drawn) | 3.04
C[C@]12CC[C@@H]3c4ccc(O)c([N+](=O)[O-])c4CC[C@H]3[C@@H]1CC[C@@H]2NS(=O)(=O)c1ccc(C(F)(F)F)cc1 | 3.63
N/C(=N\OC(=O)c1ccccc1)C(C(=O)NOC(=O)c1ccccc1)C1CCCCC1 (stereo not drawn) | 5.59
Cc1cc2c(C(C)C)c(O)c(O)c(C=Nc3cc(C(F)(F)F)ccc3Cl)c2c(O)c1-c1c(C)cc2c(C(C)C)c(O)c(O)c(C=Nc3cc(C(F)(F)F)ccc3Cl)c2c1O | 86

Query :: For the record CCN(c1ccc(CO)c(Cl)c1)C(C)c1ccc(F)cc1 (stereo not drawn) , what value of TGI is listed for MDA-MB-435?
Result :: 32.5

---

Below, each entry is listed with its recorded TGI.
Tested on: BT-549 breast
Assay Comment: NCI tumour cell line growth inhibition, 48 h

Illustrative cases are given below, each with its answer.
Compound | TGI
NC(N)=NS(=O)(=O)c1ccc(NC(=O)c2cccc3c(NNc4ccc(S(N)(=O)=O)cc4)c4ccccc4nc23)cc1 | > 100 µM
CC1CCc2sc3nc4n(c(=O)c3c2C1)CC(C)S4 (centres undefined) | > 100 µM
Cc1cc2c(cc1C)NC1=C(N2)OC(c2c[nH]c3ccc(COc4ccccc4)cc23)C1=O (centres undefined) | > 100 µM
CC(C)(C)c1cc(/C=C2/NC(=O)NC2=O)cc(C(C)(C)C)c1O | 27.3 µM
CCC(=O)Nc1ccc(NS(=O)(=O)c2ccc(Cl)cc2)cc1 | > 100 µM
CCOc1ccc(NCC2CC/C(=C\C=C\c3ccccc3)C2=O)cc1 (centres undefined) | 33 µM
CC1(C)N=C(N)N=C(N)N1c1ccc(CCc2ccccc2)c(Cl)c1 | 12.5 µM
Cc1cccc(NS(=O)(=O)c2ccc(N=Nc3c(O)c(C(=O)O)cc4ccccc34)cc2)n1 | > 100 µM

Query :: I would be grateful if you could share the reported TGI for C/C(=N\O)c1ccc(Nc2cc(-n3nnc4ccccc43)nc3ccccc23)cc1 .
Result :: 14.8 µM

Query :: Do the same for O=CN1CCN(C(=O)c2ccco2)C1=S please
Result :: 16.8 µM

Query :: Do the same for O=C1/C(=C/c2ccc(Cl)cc2)CCCc2ccc(F)cc21 please
Result :: > 100 µM

---

System: RXF 393 renal
Assay Comment: NCI tumour cell line growth inhibition, 48 h
Value Type: TGI

Illustrative cases are given below, each with its answer.
Molecule | Result
COc1ccc(OC)c(NC(=O)C(=O)C(C(=O)c2ccccc2F)C2OC(=O)c3ccccc32)c1 (stereo not given) | 70.7 µM
Cn1c2c(c3ccccc31)CCN1C(=O)C34CCCC3CC21S4 (stereo not given) | > 100 µM
COc1cc2cc(Oc3ccc(NC(=O)c4cccc(C(F)(F)F)c4)cc3)c(C)nc2cc1OC | > 100 µM

Query :: I would be grateful if you could share the reported TGI for CCOC(=O)Cn1nnc2cc(Nc3c(C)[n+]([O-])c4cc(F)c(OCC)cc4[n+]3[O-])ccc21 .
Result :: > 100 µM

Query :: Do the same for O=C(/C=C\Nc1ccccc1O)C(F)(F)F please
Result :: > 100 µM

---

Below, each entry is listed with its recorded TGI.
Tested on: K-562 leukemia
Assay Comment: NCI tumour cell line growth inhibition, 48 h

Compound | TGI
O=C(Sc1c(-c2ccccc2)c(=O)n(-c2ccccc2)c(=S)n1-c1ccccc1)c1ccco1 | > 100 µM
Clc1ccccc1NN(Cc1ccccn1)c1ccccc1Cl | 68.7 µM
Cc1cc(N(CCNc2ccnc3cc(Cl)ccc23)Cc2ccc3c(c2)OCO3)nc(N2CCN(C)CC2)n1 | 3.93 µM
C#CCOCC12C=CC(O1)C1COC(=O)C12 (centres undefined) | > 100 µM
O=C1N[C@@H]2CCC[C@@H]2[C@@H]1c1ccc(Cl)cc1 | > 100 µM
CN(C)CCNc1c([N+](=O)[O-])sc2ccc(Cl)cc12 | > 100 µM

Query :: I would be grateful if you could share the reported TGI for COc1cc2cc(Oc3ccc(NC(=O)c4cccc(C(F)(F)F)c4)cc3)c(C)nc2cc1OC .
Result :: > 100 µM

Query :: Do the same for NC(Cc1[nH]nc2ccccc12)C(=O)O (centres undefined) please
Result :: > 100 µM

Query :: Do the same for Cc1ccc(S(=O)(=O)c2c(O)c3ccc(O)c(C)c3oc2=O)cc1 please
Result :: > 100 µM

Query :: Do the same for O=C(Nc1ccc(OC(F)(F)F)cc1)c1sccc1NCc1ccnc2ccccc12 please
Result :: > 100 µM

Query :: Do the same for O=c1c(-c2ccccc2)c(SCCN2CCCCCC2)n(-c2ccccc2)c(=S)n1-c1ccccc1 please
Result :: 93.9 µM

Query :: Do the same for C=C1CC(COc2ccc3c(C)c(C)c(=O)oc3c2C)(c2ccccc2)OC1=O (centres undefined) please
Result :: 3.88 µM

Query :: Do the same for Cc1cc([N+](=O)[O-])c(C)c2c1[nH]c1ccc(/C(CCC3CCCC3)=N\N)cc12 please
Result :: 55.2 µM

Query :: Do the same for CCC1(Br)C(=O)NC(=O)N(C2CC(O)C(CO)O2)C1N=[N+]=[N-] (centres undefined) please
Result :: > 100 µM

Query :: Do the same for Clc1ccc(OCc2nnc(COc3ccc(OCc4nnc(COc5ccc(Cl)cc5Cl)o4)c(Cl)c3)o2)c(Cl)c1 please
Result :: 53.3 µM

Query :: Do the same for S=C(N/N=C/c1cc(Cl)cc(Cl)c1)NC12CC3CC(CC(C3)C1)C2 please
Result :: > 100 µM

Query :: Do the same for CCOC(=O)C1(C(=O)OCC)CCC(C(OC)OC)C(CC(=O)OC)C1 (centres undefined) please
Result :: > 10 µM

Query :: Do the same for CNC(=O)Nc1ccc(-c2nc(N3CCOCC3)nc3c2cnn3C2CCOCC2)cc1 please
Result :: > 100 µM

Query :: Do the same for CS(=O)(=O)c1ccc(Cl)c([N+](=O)[O-])c1 please
Result :: 66.5 µM

Query :: Do the same for Cc1cccc(NC(=O)c2sc3nc4c(cc3c2N)CCCC4)c1C please
Result :: > 100 µM

Query :: Do the same for CC[O-].CC[O-].O=C1C(=C([O-])c2ccccc2)C(=O)c2ccccc21.O=C1C(=C([O-])c2ccccc2)C(=O)c2ccccc21.[Ti+4] please
Result :: > 100 µM
